Target: porcine pancreatic PLA2 (Sus scrofa)
Construct: purchased Sigma
Experiment: MPLA2 assay: in vitro porcine pancreatic phospholipase A2, mixed micelle design, substrate 2 nM
Type: biochemical
Conditions: dose 10 μ/ml, subs. con. 2, read-out: % Inh.

# compound, inhibition at 10 µg/mL [%]
measured = [
    ("CCCCCCCCCCCCCCCCS(=O)(=O)CCCOP(=O)([O-])OCC[N+](C)(C)C", 24),
    ("CCCCCCCCCCCCCCCCOCC(COP(=O)([O-])OCC[N+](C)(C)C)C[S+]([O-])CCCCCCCCCCCCCCCC (stereo not drawn)", 71),
    ("CCCCCCCCCCCCCCCCOCC(COP(=O)([O-])OCC[N+](C)(C)C)CC(=O)C(F)(F)CCCCCCCCCCCCCCCC (stereo not drawn)", 88),
]

---

Molecular target: porcine pancreatic PLA2 (Sus scrofa, UniProt P00592)
Construct: purchased Sigma
Sequence (P00592 23-146): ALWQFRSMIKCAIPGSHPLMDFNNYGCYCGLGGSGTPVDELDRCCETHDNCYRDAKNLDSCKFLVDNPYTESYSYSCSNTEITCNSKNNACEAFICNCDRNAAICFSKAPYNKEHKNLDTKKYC
Test: PLA2 assay: in vitro porcine pancreatic phospholipase A2, preincubation of drug+enzyme, substrate 2 nM
Assay type: biochemical
Details: dose 10 μ/ml; preincubation; subs. con. 2; read-out: % Inh.
Please enter 1 where inhibition at 10 µg/mL is greater than or equal to 70%, and 0 where it is lower.

# compound, assigned.category
rows = [
    ("CCCCCCCCCCCCCCCCSCCCOP(=O)([O-])OCC[N+](C)(C)C", 0),
    ("CCCCCCCCCCCCCCCCOCC(COP(=O)([O-])OCC[N+](C)(C)C)CC(=O)C(=O)CCCCCCCCCCCCCCCC (centres unmarked)", 0),
    ("CCCCCOCC(COP(=O)([O-])OCC[N+](C)(C)C)OP(=O)(OC)OCCCCC (single isomer, unassigned; more polar)", 0),
    ("CCCCCCCCCCCCCCCCOCC(O)(COP(=O)([O-])OCC[N+](C)(C)C)CC(N)CC (centres unmarked)", 1),
    ("CCCCCCCCCCCCCCCCOCC(CC=O)COP(=O)([O-])OCC[N+](C)(C)C (centres unmarked)", 0),
    ("CCCCCCCCCCCCCCCCOCC(COP(=O)([O-])OCC[N+](C)(C)C)CS(=O)(=O)CCCCCCCCCCCCCCCC (centres unmarked)", 0),
    ("CCCCCCCCCCCCCCCCOCC(COP(=O)([O-])OCC[N+](C)(C)C)CC(O)CCCCCCCCCCCCCCCC (single isomer, unassigned)", 1),
]

---

Target: porcine pancreatic PLA2 (Sus scrofa)
Construct: purchased Sigma
Test: PLA2 assay: in vitro porcine pancreatic phospholipase A2, preincubation of drug+enzyme, substrate 2 nM
Assay type: biochemical
Details: preincubation; subs. con. 2; read-out: IC50 (converted)
IC50 values by entry

# compound, IC50, nM
rows = [
    ("CCCCCCCCCCCCCCCCOCC(COP(=O)([O-])OCC[N+](C)(C)C)CB(O)O (stereo not drawn)", 10700),
    ("CCCCCCCCCCCCCCCCOCC(COP(=O)([O-])OCC[N+](C)(C)C)CC1(CCCCCCCCCCCCCCCC)CO1 (stereo not drawn)", 2410),
    ("CCCCCCCCCCCCCCCCOCC(COP(=O)([O-])OCC[N+](C)(C)C)CC(=O)C(=O)CCCCCCCCCCCCCCCC (stereo not drawn)", 7100),
    ("CCCCCCCCCCCCCCCCOCC(COP(=O)([O-])OCC[N+](C)(C)C)OP(=O)(OC)OCCCCC (single isomer, unassigned)", 8050),
    ("CCCCCCCCCCCCCCCCOCC(COP(=O)([O-])OCC[N+](C)(C)C)C[S+]([O-])CCCCCCCCCCCCCCCC (stereo not drawn)", 1860),
    ("CCCCCCCCCCCCCCCCOCC(COP(=O)([O-])OCC[N+](C)(C)C)CC(N)CCCCCCCCCCCCCCCC (stereo not drawn)", 682),
    ("C=C(CCCCCCCCCCCCCCCC)CC(COCCCCCCCCCCCCCCCC)COP(=O)([O-])OCC[N+](C)(C)C (stereo not drawn)", 5200),
    ("CCCCCCCCCCCCCCCCOCC(COP(=O)([O-])OCC[N+](C)(C)C)CSCCCCCCCCCCCCCCCC (stereo not drawn)", 4750),
    ("CCCCCCCCCCCCCCCCOC[C@H](COP(=O)([O-])OCC[N+](C)(C)C)OP(=O)(OC)OCCCCCCCCCCCCCCCC (single isomer, unassigned)", 2500),
    ("CCCCCCCCCCCCCCCCOCC(O)(COP(=O)([O-])OCC[N+](C)(C)C)CC(N)CC (stereo not drawn)", 2350),
]

---

Target: porcine pancreatic PLA2 (Sus scrofa, UniProt P00592)
Construct: purchased Sigma
Experiment: PLA2 assay: in vitro porcine pancreatic phospholipase A2, preincubation of drug+enzyme, substrate 2 nM
Format: biochemical
Settings: dose 10 μ/ml; preincubation; subs. con. 2

# compound, % Inh.
measured = [
    ("CCCCCCCCCCCCCCCCOCC(COP(=O)([O-])OCC[N+](C)(C)C)C[S+]([O-])CCCCCCCCCCCCCCCC (stereo not shown)", "88%"),
    ("CCCCCCCCCCCCCCCCOCC(COP(=O)([O-])OCC[N+](C)(C)C)OP(=O)(OC)OCCCCC (single isomer, unassigned)", "82%"),
    ("CCCCCCCCCCCCCCCCOCC(COP(=O)([O-])OCC[N+](C)(C)C)CC(O)CCCCCCCCCCCCCCCC (single isomer, unassigned) [4-Hydroxy-7-(2-hydroxyoctadecyl)-N,N,N-trimethyl-3,5,9-triox]", "80%"),
    ("CCCCCCCCCCCCCCCCOCC(COP(=O)([O-])OCC[N+](C)(C)C)COP(=O)(Oc1ccccc1)Oc1ccccc1 (stereo not shown)", "75%"),
]

---

Target: porcine pancreatic PLA2 (Sus scrofa, UniProt P00592)
Construct: purchased Sigma
Test: MHPLA2 assay: in vitro porcine pancreatic phospholipase A2, mixed micelle design, [s]=10 μm
Format: biochemical
Settings: dose 20 μ/ml, subs. con. 10
inhibition at 20 µg/mL values by entry
test.readout: inhibition at 20 µg/mL (%)

# compound, system.tested, test.readout, unit.spec, endpoint.result
records = [
    ("CCCCCCCCCCCCCCCCOCC(CC=NO)COP(=O)([O-])OCC[N+](C)(C)C (stereo not drawn)", "porcine pancreatic PLA2 (Sus scrofa, UniProt P00592)", "inhibition at 20 µg/mL", "%", 8),
    ("CCCCCCCCCCCCCCCCOCC(COP(=O)([O-])OCC[N+](C)(C)C)C[S+]([O-])CCCCCCCCCCCCCCCC (stereo not drawn)", "porcine pancreatic PLA2 (Sus scrofa, UniProt P00592)", "inhibition at 20 µg/mL", "%", 22),
    ("CCCCCCCCCCCCCCCCOCC(COP(=O)([O-])OCC[N+](C)(C)C)CC(N)CCCCCCCCCCCCCCCC (stereo not drawn)", "porcine pancreatic PLA2 (Sus scrofa, UniProt P00592)", "inhibition at 20 µg/mL", "%", 97),
]

---

Biological target: porcine pancreatic PLA2 (Sus scrofa)
Construct: purchased Sigma
Assay: PLA2 assay: in vitro porcine pancreatic phospholipase A2, preincubation of drug+enzyme, substrate 2 nM
Assay type: biochemical
Conditions: dose 20 μ/ml; preincubation; subs. con. 2; read-out: % Inh.

# compound, system.tested, inhibition at 20 µg/mL [%]
rows = [
    ("CCCCCCCCCCCCCCCCOCC(COP(=O)([O-])OCC[N+](C)(C)C)CSCCCCCCCCCCCCCCCC (stereo not shown)", "porcine pancreatic PLA2 (Sus scrofa)", 61),
    ("CCCCCCCCCCCCCCCC[C@]1(COP(=O)([O-])OCC[N+](C)(C)C)CC(=O)N1", "porcine pancreatic PLA2 (Sus scrofa)", 79),
    ("CCCCCCCCCCCCCCCCOCC(COP(=O)([O-])OCC[N+](C)(C)C)CC(C)(O)CCCCCCCCCCCCCCCC (stereo not shown)", "porcine pancreatic PLA2 (Sus scrofa)", 66),
    ("CCCCCCCCCCCCCCCCOCC(COP(=O)([O-])OCC[N+](C)(C)C)CS(=O)(=O)CCCCCCCCCCCCCCCC (stereo not shown)", "porcine pancreatic PLA2 (Sus scrofa)", 82),
    ("CCCCCCCCCCCCCCCCOCC(COP(=O)([O-])OCC[N+](C)(C)C)CC1CO1 (stereo not shown)", "porcine pancreatic PLA2 (Sus scrofa)", 88),
    ("CCCCCCCCCCCCCCCCOCC(COP(=O)([O-])OCC[N+](C)(C)C)OP(=O)(OC)OCCCCC (single isomer, unassigned)", "porcine pancreatic PLA2 (Sus scrofa)", 83),
    ("CCCCCCCCCCCCCCCCOCC(COP(=O)([O-])OCC[N+](C)(C)C)CC(=O)CCCCCCCCCCCCCCCC (stereo not shown)", "porcine pancreatic PLA2 (Sus scrofa)", 62),
    ("CCCCCCCCCCCCCCCCOCC(COP(=O)([O-])OCC[N+](C)(C)C)C[S+]([O-])CCCCCCCCCCCCCCCC (stereo not shown)", "porcine pancreatic PLA2 (Sus scrofa)", 93),
    ("CCCCCCCCCCCCCCCCC#CCC(COCCCCCCCCCCCCCCCC)COP(=O)([O-])OCC[N+](C)(C)C (stereo not shown)", "porcine pancreatic PLA2 (Sus scrofa)", 60),
    ("CCCCCOCC(COP(=O)([O-])OCC[N+](C)(C)C)OP(=O)(OC)OCCCCC (single isomer, unassigned; more polar)", "porcine pancreatic PLA2 (Sus scrofa)", 11),
    ("CCCCCOCC(COP(=O)([O-])OCC[N+](C)(C)C)OP(=O)(O)OCCCCC (single isomer, unassigned; less polar)", "porcine pancreatic PLA2 (Sus scrofa)", 17),
    ("CCCCCCCCCCCCCCCCCC(=O)NCC(CO)COCCCCCCCCCCCCCCCC (stereo not shown)", "porcine pancreatic PLA2 (Sus scrofa)", 24),
    ("CCCCCCCCCCCCCCCCOCC(COP(=O)([O-])OCC[N+](C)(C)C)CP(=O)(OCC)OCC (stereo not shown)", "porcine pancreatic PLA2 (Sus scrofa)", 81),
    ("CCCCCCCCCCCCCCCC[S+]([O-])CCCOP(=O)([O-])OCC[N+](C)(C)C (stereo not shown)", "porcine pancreatic PLA2 (Sus scrofa)", 82),
    ("C=C(CCCCCCCCCCCCCCCC)CC(COCCCCCCCCCCCCCCCC)COP(=O)([O-])OCC[N+](C)(C)C (stereo not shown)", "porcine pancreatic PLA2 (Sus scrofa)", 52),
    ("CCCCCCCCCCCCCCCCOCC(O)(COP(=O)([O-])OCC[N+](C)(C)C)CC(N)CC (stereo not shown)", "porcine pancreatic PLA2 (Sus scrofa)", 94),
    ("CCCCCCCCCCCCCCCCOCC(CC=NO)COP(=O)([O-])OCC[N+](C)(C)C (stereo not shown)", "porcine pancreatic PLA2 (Sus scrofa)", 81),
    ("CCCCCCCCCCCCCCCCSCCCOP(=O)([O-])OCC[N+](C)(C)C", "porcine pancreatic PLA2 (Sus scrofa)", 64),
    ("CCCCCCCCCCCCCCCCOCC(COP(=O)([O-])OCC[N+](C)(C)C)CC(O)CCCCCCCCCCCCCCCC (single isomer, unassigned)", "porcine pancreatic PLA2 (Sus scrofa)", 80),
    ("CCCCCCCCCCCCCCCCOCC(COP(=O)([O-])OCC[N+](C)(C)C)CC(O)C(F)(F)CCCCCCCCCCCCCCCC (stereo not shown)", "porcine pancreatic PLA2 (Sus scrofa)", 49),
    ("CCCCCCCCCCCCCCCCOCC(COP(=O)([O-])OCC[N+](C)(C)C)CB(O)O (stereo not shown)", "porcine pancreatic PLA2 (Sus scrofa)", 77),
    ("CCCCCCCCCCCCCCCCOCC(COP(=O)([O-])OCC[N+](C)(C)C)CC(=O)C(=O)CCCCCCCCCCCCCCCC (stereo not shown)", "porcine pancreatic PLA2 (Sus scrofa)", 61),
    ("CCCCCCCCCCCCCCCCOCC(COP(=O)([O-])OCC[N+](C)(C)C)OP(=O)(O)OCCCCC (single isomer, unassigned; less polar)", "porcine pancreatic PLA2 (Sus scrofa)", 41),
    ("CCCCCCCCCCCCCCCCS(=O)(=O)CCCOP(=O)([O-])OCC[N+](C)(C)C", "porcine pancreatic PLA2 (Sus scrofa)", 88),
    ("CCCCCCCCCCCCCCCCOCC(COP(=O)([O-])OCC[N+](C)(C)C)CC(=O)C(F)(F)CCCCCCCCCCCCCCCC (stereo not shown)", "porcine pancreatic PLA2 (Sus scrofa)", 41),
    ("CCCCCCCCCCCCCCCCOCC(COP(=O)([O-])OCC[N+](C)(C)C)CC(N)CCCCCCCCCCCCCCCC (stereo not shown)", "porcine pancreatic PLA2 (Sus scrofa)", 95),
    ("C=C(CC(COCCCCCCCCCCCCCCCC)COP(=O)([O-])OCC[N+](C)(C)C)C(F)(F)CCCCCCCCCCCCCCCC (stereo not shown)", "porcine pancreatic PLA2 (Sus scrofa)", 38),
    ("CCCCCCCCCCCCCCCCOCC(COP(=O)([O-])OCC[N+](C)(C)C)OP(=O)(OC)OCCCCCCCCCCCCCCCC (stereo not shown)", "porcine pancreatic PLA2 (Sus scrofa)", 65),
    ("CCCCCCCCCCCCCCCCOCC(COP(=O)([O-])OCC[N+](C)(C)C)CC1(CCCCCCCCCCCCCCCC)CO1 (stereo not shown)", "porcine pancreatic PLA2 (Sus scrofa)", 75),
    ("CCCCCCCCCCCCCCCCOCC(COP(=O)([O-])OCC[N+](C)(C)C)OCC(=O)O (stereo not shown)", "porcine pancreatic PLA2 (Sus scrofa)", 44),
    ("CCCCCCCCCCCCCCCCOCC(CC=O)COP(=O)([O-])OCC[N+](C)(C)C (stereo not shown)", "porcine pancreatic PLA2 (Sus scrofa)", 62),
]
